Biological target: Large neutral amino acids transporter small subunit 1 (Homo sapiens, UniProt Q01650)
Sequence (Q01650 whole entry): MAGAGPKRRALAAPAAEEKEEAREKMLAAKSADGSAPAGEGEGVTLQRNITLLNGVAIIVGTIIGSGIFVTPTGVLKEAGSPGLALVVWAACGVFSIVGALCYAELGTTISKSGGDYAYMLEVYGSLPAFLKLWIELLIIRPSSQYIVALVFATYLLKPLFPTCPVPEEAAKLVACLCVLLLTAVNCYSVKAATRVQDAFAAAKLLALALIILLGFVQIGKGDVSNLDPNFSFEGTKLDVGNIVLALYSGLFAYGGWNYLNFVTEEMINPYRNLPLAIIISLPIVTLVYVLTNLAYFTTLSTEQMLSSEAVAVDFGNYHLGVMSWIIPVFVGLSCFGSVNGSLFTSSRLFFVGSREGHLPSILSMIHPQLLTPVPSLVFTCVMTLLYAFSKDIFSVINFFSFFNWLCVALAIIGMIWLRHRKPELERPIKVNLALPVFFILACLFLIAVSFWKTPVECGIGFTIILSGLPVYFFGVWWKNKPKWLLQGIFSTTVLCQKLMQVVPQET
Test: Inhibition of human LAT1 expressed in HEK cells assessed as reduction in uptake of [3H]-gabapentin at 200 uM after 3 mins by scintillation counting based cis-inhibition assay
Type: cell-based
Settings: HEK293
READOUT_NAME: inhibition (%)
// note: answer is a bare numeric in %

Sample answers from the record:
[[record]]
smiles_structure = "N=C(N)NCCC[C@H](N)C(=O)O"
assay_target = "Large neutral amino acids transporter small subunit 1 (Homo sapiens, UniProt Q01650)"
readout_value = 49

[[record]]
smiles_structure = "Cc1cc(C[C@H](N)C(=O)O)ccc1O"
assay_target = "Large neutral amino acids transporter small subunit 1 (Homo sapiens, UniProt Q01650)"
readout_value = 56

[[record]]
smiles_structure = "N[C@@H](Cc1ccc(O)cc1)C(=O)O"
assay_target = "Large neutral amino acids transporter small subunit 1 (Homo sapiens, UniProt Q01650)"
readout_value = 68

[[record]]
smiles_structure = "N[C@@H](Cc1ccc(O)c(Br)c1)C(=O)O"
assay_target = "Large neutral amino acids transporter small subunit 1 (Homo sapiens, UniProt Q01650)"
readout_value = 86

[[record]]
smiles_structure = "N[C@@H](Cc1ccc(O)c(I)c1)C(=O)O"
assay_target = "Large neutral amino acids transporter small subunit 1 (Homo sapiens, UniProt Q01650)"
readout_value = 77

[[record]]
smiles_structure = "CC(C)C[C@H](N)C(=O)O"
assay_target = "Large neutral amino acids transporter small subunit 1 (Homo sapiens, UniProt Q01650)"
readout_value = 78


Input: Record request: inhibition value, item CC(C)c1cccc(C[C@H](N)C(=O)O)c1
Output: 91

Input: Entry under review: N[C@@H](Cc1ccccc1)C(=O)O . Reported inhibition?
Output: 85

Input: So what does the record say about inhibition for CCc1cc(C[C@H](N)C(=O)O)ccc1O ?
Output: 68

Input: Which inhibition is reported for this compound? N[C@@H](Cc1cccc(Cc2ccccc2)c1)C(=O)O
Output: 98

Input: Can you look up the measured inhibition of N[C@@H](Cc1cccc(-c2ccccc2)c1)C(=O)O for me?
Output: 98

Input: Can you look up the measured inhibition of N[C@@H](Cc1ccc(O)c(-c2ccccc2)c1)C(=O)O for me?
Output: 83

----------
Molecular target: Large neutral amino acids transporter small subunit 1 (Homo sapiens, UniProt Q01650)
Assay: Inhibition of human LAT1 expressed in HEK cells assessed as reduction in uptake of [3H]-gabapentin at 200 uM after 3 mins by scintillation counting based cis-inhibition assay
Format: cell-based
Settings: HEK293
READOUT_NAME: inhibition (%)
# number only, unit % dropped from output

Reference set (6 entries):
[[record]]
smiles_structure = "N[C@@H](Cc1cccc(I)c1)C(=O)O"
readout_value = 91

[[record]]
smiles_structure = "CC(C)c1cc(C[C@H](N)C(=O)O)ccc1O"
readout_value = 80

[[record]]
smiles_structure = "Cc1ccc(C[C@H](N)C(=O)O)cc1"
readout_value = 86

[[record]]
smiles_structure = "CC(C)(C)c1cc(C[C@H](N)C(=O)O)ccc1O"
readout_value = 81

[[record]]
smiles_structure = "N[C@@H](Cc1cccc(Br)c1)C(=O)O"
readout_value = 86

[[record]]
smiles_structure = "N[C@@H](Cc1ccc(O)c(Cl)c1)C(=O)O"
readout_value = 63


Now turn to the next compound.
Input: Value lookup for inhibition; key = CC(C)(C)c1cccc(C[C@H](N)C(=O)O)c1
Output: 87
